- ASSAY_TARGET: T1, monkey IL-25 expressed with a C-terminal myc-myc-hexahistidine tag (M. fascicularis (cynomolgus monkey))
- T1 chain: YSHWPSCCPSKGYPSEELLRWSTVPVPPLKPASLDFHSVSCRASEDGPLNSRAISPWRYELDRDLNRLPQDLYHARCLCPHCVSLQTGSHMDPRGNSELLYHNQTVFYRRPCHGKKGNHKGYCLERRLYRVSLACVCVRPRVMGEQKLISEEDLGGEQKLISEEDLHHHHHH
- PROTOCOL_DESCRIPTION: cell-based or functional assay
MEASURED_ENDPOINT: IC50, luciferase reporter cells, 12 pM MfIL-25-MMH (M)
Kindly answer with a numeric value in M, unit omitted.

// worked examples, IC50, luciferase reporter cells, 12 pM MfIL-25-MMH included
[[record]]
binder = "H4H10863P (antibody, human IgG4, V domains shown, H4H prefix = human IgG4 Fc) VH: QVQLVQSGAEVKKPGASVKVSCKASGYTFSSYGISWVRQAPGQGLEWMGWISAYNDNTQYAQKFQGRVTMTTDTSTSTAYMELRSLRSDDTAVYYCARVPLQWFGESFDHWGQGTLVTVSS VL: DIQMTQSPSSLSASVGDRVTITCRASQDINNYLNWFQQKPGKAPKLLIFSTSSLQSGVPSRFSGSGSGTDFTLTISSLQSEDFATYYCQQTFITPLTFGGGTKVEIK"
obs_value = "3.5e-10"

[[record]]
binder = "H4H10876P (antibody, human IgG4, V domains shown, H4H prefix = human IgG4 Fc) VH: QVQLVQSGAEVKKPGASVKVSCKASEYTFSNYGISWVRQAPGQGLEWLGWIGAYSGFTKYAQKVQDRITMTTDASTTTAYMELRNLRSDDTAVYYCARVGTGTDSYFDFWGQGTLVTVSS VL: DIQMTQSPSSLSASVGDRVTITCRASQNINSHLNWYQQKPGKAPKLLIYTASSLQSGVPLRFSGSGSGTDFTLTISSLQPEDFGIYICQQTYITPLTFGGGTKVEIK"
obs_value = "2.1e-10"

[[record]]
binder = "H4H10901P (antibody, human IgG4, V domains shown, H4H prefix = human IgG4 Fc) VH: QLQLQESGPGLVRPSETLSLTCSVSSGSIRSSNYYWGWIRQPPGKGLEWIGNIYYSGNTFYNPSLKGRVTISVDTSKNQFSLKLSSVTATDTAVYYCARQGYSDYELNWFDPWGQGTLVTVSS VL: DIVMTQSPDSLVLSLGERATFNCKSSQSVLDSSNNKNYLAWYQQKPGQPPKLLIYWASTRESGVPDRFSGSGSGTDFSLTISSLQAEDVALYYCQQFYNSPWTFGQGTKVEIK"
obs_value = "3.8e-11"

[[record]]
binder = "H4H10883P (antibody, human IgG4, V domains shown, H4H prefix = human IgG4 Fc) VH: QVQLQESGPGLVKSSETLSLTCTVSGGSISSYYWSWIRQPPGKGLEWIGFIYYSGSTNYNPSLKSRVTFSVDTSKNHFSLKLNSVTATDTAVYYCARHYFDSGTYELGPFDYWGQGTLVTVSS VL: DIVMTQSPDSLAVSLGERATINCKSSQNILLTSSNKNYLTWYQQKPGQPPKLLIYWASIRESGVPDRFSGSGSGTDFTLTISSLQAEDVALYFCQQYYITPFTFGPGTKVDIK"
obs_value = "3.9e-11"


Query binder follows.
Param item = H4H10905P (antibody, human IgG4, V domains shown, H4H prefix = human IgG4 Fc) VH: QVQLVQSGAEVKKPGTSVKVSCKASGYTFTNYGISWVRQAPGQGLEWLGWISAYNDNTDYAQKLQARVTMTTDTFTSTAYMDLRSLRSDDTAVYYCARVPITGTTSSFDFWGQGTLVTVSS VL: DIQMTQSPSSLSASVGDRVTISCRASQTIYSYLNWFQQKPGKAPKLLIYDASSLQSGVPSRFSGSGSGTHFTLTISSLQPEDFATYFCQQTYSTPLTFGGGTKVEIK ; retrieve measured IC50, luciferase reporter cells, 12 pM MfIL-25-MMH.
2.1e-10
